Values were extracted from PubChem BioAssay (NCI).

Overview of recorded TGI for various compounds
- Test system: RXF 393 renal
- TEST DESCRIPTION: NCI tumour cell line growth inhibition, 48 h

Worked examples follow.
{"COMPOUND": "N/N=C(/Cc1ccccc1)NNC(N)=S", "TGT": "RXF 393 renal", "TGI": "> 100 µM"}
{"COMPOUND": "O=C1CC[C@@]2(O)[C@H]3Cc4ccc(-c5cccc(O)c5)c5c4[C@@]2(CCN3CC2CC2)[C@H]1O5", "TGT": "RXF 393 renal", "TGI": "52.7 µM"}
{"COMPOUND": "COC(=O)[C@@]12CCCC(=O)[C@@H]1[C@H]1CCC[C@H]12", "TGT": "RXF 393 renal", "TGI": "> 100 µM"}
{"COMPOUND": "CC(NNC(=S)N1CCCCCC1)c1cccnn1 (stereo unspecified)", "TGT": "RXF 393 renal", "TGI": "0.57 µM"}
{"COMPOUND": "Cc1cn(CCCCCCOC(=O)NC(CCCN=C(N)N)C(=O)O)c(=O)[nH]c1=O (stereo unspecified)", "TGT": "RXF 393 renal", "TGI": "> 100 µM"}

# get_value(readout='TGI', item= Cc1cn(C2CC(n3cncn3)C(C(C)O)O2)c(=O)[nH]c1=O (stereo unspecified) )
> 100 µM
